Hey, just so you know, these numbers are from patent US9944618B2.

molecular target: human norepinephrine transporter (Homo sapiens (Human), UniProt P23975); assay: Human NET (norepinephrine transporter) uptake assay; assay type: cell-based; conditions: comparison in words, used to assign configuration
Sequence (P23975 whole entry): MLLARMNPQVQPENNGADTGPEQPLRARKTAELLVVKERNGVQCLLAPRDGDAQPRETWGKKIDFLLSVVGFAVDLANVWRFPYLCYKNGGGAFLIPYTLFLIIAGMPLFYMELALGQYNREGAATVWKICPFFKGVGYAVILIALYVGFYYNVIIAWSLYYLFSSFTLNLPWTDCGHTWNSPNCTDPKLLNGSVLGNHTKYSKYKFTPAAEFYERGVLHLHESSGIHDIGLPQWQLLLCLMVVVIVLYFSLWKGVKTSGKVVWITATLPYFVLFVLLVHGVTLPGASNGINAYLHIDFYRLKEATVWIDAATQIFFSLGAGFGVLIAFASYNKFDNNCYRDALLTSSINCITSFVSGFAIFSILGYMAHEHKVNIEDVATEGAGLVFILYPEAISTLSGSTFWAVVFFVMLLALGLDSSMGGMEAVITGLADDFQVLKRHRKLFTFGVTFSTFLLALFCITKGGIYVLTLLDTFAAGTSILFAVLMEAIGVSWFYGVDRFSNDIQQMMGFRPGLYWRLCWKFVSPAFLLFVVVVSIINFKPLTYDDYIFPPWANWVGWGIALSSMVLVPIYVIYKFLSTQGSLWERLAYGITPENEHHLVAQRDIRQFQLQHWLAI
assay-metric: potency at hNET relative to the other enantiomer or epimer

Known potency at hNET relative to the other enantiomer or epimer results, listed for orientation:
- compound: "CNC[C@H](c1ccc2ccccc2c1)[C@@H](O)c1cc(F)cc(F)c1"
  value-reported: "more potent"
- compound: "CNCC(Cc1ccccc1CO)c1ccc2ccccc2c1 (stereo not shown) [compound 90]"
  value-reported: "less potent"
- compound: "CNC[C@@H](c1ccc(Cl)c(Cl)c1)[C@@H](O)c1cccc(NS(=O)(=O)C(F)(F)F)c1"
  value-reported: "lower potency"
- compound: "CNC[C@@H](c1ccc2ccccc2c1)[C@@H](O)c1cccnc1 [compound 49]"
  value-reported: "more potent"
- compound: "CNC[C@H](c1ccc(Cl)c(Cl)c1)[C@H](O)c1ccccc1"
  value-reported: "more potent"
- compound: "CNCC(C[C@H](O)c1ccccc1)c1ccc2ccccc2c1 (stereo partly shown)"
  value-reported: "more potent"
- compound: "CNC[C@@H](c1ccc(Cl)c(Cl)c1)[C@@H](O)c1cncc(OC)c1"
  value-reported: "lower potency"
- compound: "CNC[C@@H](c1ccc2ccccc2c1)[C@H](O)c1ccccc1F"
  value-reported: "less potent"
- compound: "CNC[C@H](c1ccc2ccccc2c1)[C@H](O)c1ccccc1C"
  value-reported: "more potent"
- compound: "CNC[C@@H](c1ccc2ccccc2c1)[C@@H](O)c1ccccc1F"
  value-reported: "less potent"

For every record below, what is its potency at hNET relative to the other enantiomer or epimer?
1. CNC[C@H](c1ccc(Cl)c(Cl)c1)[C@H](O)c1cccc(Br)c1
2. CNCC(c1ccc2ccccc2c1)[C@@H](O)c1ccc(Cl)nc1 (stereo partly shown)
3. CNCC(Cc1cccnc1)c1ccc2ccccc2c1 (stereo not shown)
4. CNCC(CCc1ccccc1)[C@H](O)c1ccccc1 (stereo partly shown)
5. CNC[C@H](c1ccc(Cl)c(Cl)c1)[C@@H](O)c1cccc(NC(C)=O)c1
6. NC[C@@H](c1ccc2ccccc2c1)[C@@H](O)c1ccc(Cl)nc1

Found:
1. more potent
2. lower potency
3. more potent
4. less potent
5. more potent
6. lower potency
